Target: Orexin/Hypocretin receptor type 1 (Rattus norvegicus, UniProt P56718)
Sequence (P56718 whole entry): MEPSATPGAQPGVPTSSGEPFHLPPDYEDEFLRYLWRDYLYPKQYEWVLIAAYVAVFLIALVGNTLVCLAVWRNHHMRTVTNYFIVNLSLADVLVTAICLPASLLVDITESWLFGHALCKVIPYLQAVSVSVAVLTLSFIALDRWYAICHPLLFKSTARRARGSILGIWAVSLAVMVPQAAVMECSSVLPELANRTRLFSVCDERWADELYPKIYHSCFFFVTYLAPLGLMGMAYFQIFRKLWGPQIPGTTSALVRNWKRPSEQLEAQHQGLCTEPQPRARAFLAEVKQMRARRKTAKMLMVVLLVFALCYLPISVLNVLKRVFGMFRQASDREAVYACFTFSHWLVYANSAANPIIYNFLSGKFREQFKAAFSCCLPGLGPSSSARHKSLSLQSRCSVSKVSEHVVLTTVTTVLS
Test: Radioligand Binding Assay: Compound potency can be assessed by a radioligand binding assay (described in Bergman et. al. Bioorg. Med. Chem. Lett. 2008, 18, 1425-1430) in which the inhibition constant (Ki) is determined in membranes prepared from CHO cells expressing either the orexin-1 (OX1) or orexin-2 (OX2) receptor.
Type: cell membranes
pKi: −log10 of the molar value.
readout_type: pKi

(1) Cc1ccc(-n2nccn2)c(C(=O)N2CC(COc3ccc(F)cn3)CCCC2C)c1 (centres undefined)
(2) Cc1cc(OCC2COCC(C)N(C(=O)c3ccccc3-n3nccn3)C2)ccc1F (centres undefined)
(3) Cc1ccc(-c2nccs2)c(C(=O)N2CC(COc3ccc(F)cn3)CCCC2C)c1 (centres undefined)
// ascending sort on pKi for the entries above Answer with the labels in sequence, matching the requested order.
1, 3, 2
(1: 6.82, 3: 7.14, 2: 7.41)

(a) Cc1ccc(-c2ncccn2)c(C(=O)N2CC(COc3ccc(F)c(C)c3)CCCC2C)c1 (centres undefined)
(b) Cc1ccc(-n2nccn2)c(C(=O)N2CCCCC(COc3ccc(F)c(C)c3)C2)c1 (centres undefined)
Given the two records a and b , choose the one whose pKi value is lower. # answer = label of selected item
a
(a: 7.38, b: 7.82)
